- Tested on: A549/ATCC NSCLC
- measurement_notes: NCI-60 one-dose screen, 48 h (100 = growth as untreated, 0 = no growth, -100 = all killed)
- condition_notes: 10 µM unless noted
The panel holds about 83,000 compounds, 20% with a hit somewhere; the sample as a whole holds those more often.

query_smiles: O=S(=O)(O)c1ccc(-c2ccc([As](=O)(O)O)cc2)cc1
unit_of_measurement: %
growth: 94.4

query_smiles: CCOC(=O)/C=C(\C)Nc1ccc(N/C(C)=C/C(=O)OCC)c2c1Oc1ccccc1O2
unit_of_measurement: %
growth: 106

query_smiles: CNC(=O)Oc1cccc(N(C)C)c1
unit_of_measurement: %
growth: 93

query_smiles: COC(=O)C(=[N+]=[N-])C(=O)OC
unit_of_measurement: %
growth: 99.3

Entry source: PubChem BioAssay (NCI)
